B1: KCNA3 (parent)
chain: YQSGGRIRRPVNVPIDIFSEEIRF

Variants of: B1
Test: protein stability index of a GFP-peptide fusion (GPS, HEK-293T) (PSI 1-6); higher = more stable;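 further: lentivirally expressed fusions sorted by FACS into six bins by GFP to DsRed ratio, PSI derived from sequencing read proportions per bin multiplied by bin number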
Settings: c terminus: a fixed tail appended
# protein stability index per entry
I only need the number, thanks.

Task: Identify measured protein stability index associated with VQSGGRIRRPVNVPIDIFSEEIRF [Y1V]
Result: 2.58

Task: Identify measured protein stability index associated with YQSGGTIRRPVNVPIDIFSEEIRF [R6T]
Result: 1.76

Task: Identify measured protein stability index associated with PQSGGRIRRPVNVPIDIFSEEIRF [Y1P]
Result: 3.43

Task: Identify measured protein stability index associated with YQSGGRIRRPVNVPIDIFSEAIRF [E21A]
Result: 2.27

Task: Identify measured protein stability index associated with YQSGGRIRRPVNVPIDIFSEEINF [R23N]
Result: 1.77

Task: Identify measured protein stability index associated with YQSGGRIRRPDNVPIDIFSEEIRF [V11D]
Result: 1.69

Task: Identify measured protein stability index associated with YQSGGRIRRPVNVPIDILSEEIRF [F18L]
Result: 2.63

Task: Identify measured protein stability index associated with YQSGGRIRRPVNVPIDLFSEEIRF [I17L]
Result: 1.86

Task: Identify measured protein stability index associated with YQSGGRIRRPVNWPIDIFSEEIRF [V13W]
Result: 2.01

Task: Identify measured protein stability index associated with YQSGQRIRRPVNVPIDIFSEEIRF [G5Q]
Result: 2.5

Task: Identify measured protein stability index associated with YQSGGRIRRPVNVDIDIFSEEIRF [P14D]
Result: 1.85

Task: Identify measured protein stability index associated with YQMGGRIRRPVNVPIDIFSEEIRF [S3M]
Result: 1.56

Task: Identify measured protein stability index associated with YQSGGRIMRPVNVPIDIFSEEIRF [R8M]
Result: 2.03

Task: Identify measured protein stability index associated with YQSGGRIRRPRNVPIDIFSEEIRF [V11R]
Result: 2.37

Task: Identify measured protein stability index associated with YQSGGRIPRPVNVPIDIFSEEIRF [R8P]
Result: 2.02

Task: Identify measured protein stability index associated with YQSGGRIRRPVNVPIDIFSEETRF [I22T]
Result: 2.2

Task: Identify measured protein stability index associated with YQSGGRIRTPVNVPIDIFSEEIRF [R9T]
Result: 2.48

Task: Identify measured protein stability index associated with YQSGGRIRRPVNVPISIFSEEIRF [D16S]
Result: 2.42

Task: Identify measured protein stability index associated with YQSGGRIRRPVNVPIDIFSEELRF [I22L]
Result: 2.06
